Tested on: SR
EXPERIMENT: NCI tumour cell line growth inhibition, 48 h
Activity calls are given as the source filed them. Cut-off read from the data, not from the text of the source: active = GI50 up to about 1.1 µM and inactive = higher.
// allowed return values: active, inactive

Reference set, count: 2
COc1ccc(NC(=O)NNS(=O)(=O)c2ccc(C)cc2)cc1	inactive
CC(=O)OC(C)(C)C[N+](=O)[O-]	inactive

Field: outcome | Entry: COC1CCC(OS(C)(=O)=O)CO1 (configuration not stated)
inactive

Field: outcome | Entry: COc1ccc2cc(-c3ccc(OC)c(OC)c3)c(=O)oc2c1
inactive

Field: outcome | Entry: O=C(NCCNCCNC(=O)c1cc(-c2ccccc2)nc2ccccc12)c1cc(-c2ccccc2)nc2ccccc12
inactive

Field: outcome | Entry: Cc1cccc(Nc2cn(COCc3ccccc3)c(=O)[nH]c2=O)c1
inactive

Field: outcome | Entry: C[N+](C)(N)c1nc(N)c(C#N)c(C#N)c1C#N
inactive

Field: outcome | Entry: CN(C)NC1=NS(=O)(=O)c2cc3c(cc2S1)N(N(C)C)C(=O)c1cc2c(cc1N(N(C)C)C3=O)SC(NN(C)C)=NS2(=O)=O
inactive

Field: outcome | Entry: C=CCn1c(=S)sc2c(O)ncnc21
inactive

Field: outcome | Entry: Cc1c2ccccc2cc2nc3ccccc3n12
inactive

Field: outcome | Entry: COc1cc2oc(=O)cc(C)c2c(OC)c1OC(C)=O
inactive

Field: outcome | Entry: C=C/C=C/NC(=O)OCc1ccccc1
inactive

Field: outcome | Entry: CC1=C2CC(C)(C)CC(=O)C2(C)CCC1=O (configuration not stated)
inactive

Field: outcome | Entry: COc1cc(/C=C2\CCC(C)C3=C2N=c2s/c(=C/c4ccc(Cl)cc4)c(=O)n2C3c2cc(OC)c(OC)c(OC)c2)cc(OC)c1OC (configuration not stated)
inactive

Field: outcome | Entry: Cc1cc(C)c(N[S+]([O-])c2cccc([N+](=O)[O-])c2)c(C)c1 (configuration not stated)
inactive

Field: outcome | Entry: CCC/C(Cl)=N/OC(=O)Nc1cccc(F)c1
active

Field: outcome | Entry: CC(C)(C)C1=NO[C@H]2[C@@H](NC(=O)c3ccccc3)CC[C@@H]12
inactive

Field: outcome | Entry: C[N+]1([O-])CCC(O)(C2CC2)CC1 (configuration not stated)
inactive

Field: outcome | Entry: CCN(CC)CCCCC1CCN(CC(=O)N2c3ccccc3NC(=O)c3ccccc32)CC1
inactive
